In this section, each of the compounds is paired with its reported TGI.
# Test system: SNB-75 CNS
# EXPERIMENT DESCRIPTION: NCI tumour cell line growth inhibition, 48 h

Here are 2 compounds together with their reported answers.
# COMPOUND, TGI
data = [
    ("COc1cc2nc3c(=C(C#N)C#N)c4ccccc4n3c(=O)c2cc1OC", "> 100 µM"),
    ("Cc1ccc(S(=O)(=O)N(/N=C/C=C/c2ccccc2)c2nnc(-c3ccccc3)c(-c3ccccc3)n2)cc1", "69 µM"),
]

[ask] Name the recorded TGI for CC1(C)O[C@@H](CC/C=C/CO)[C@H](CC/C=C/CO)O1 .
[reply] > 100 µM

[ask] Next compound up: c1ccc(C2N=NN(c3ccccc3)C2N2CCCCC2)cc1 (configuration not stated)
[reply] 55 µM

[ask] Repeat for the following compound: CCc1ccccc1NC(=O)C1=C(C)NC(C)=C(C(=O)Nc2c(CC)cccc2CC)C1c1ccc2c(c1)OCO2 (configuration not stated)
[reply] > 100 µM

[ask] Ok, now O=C1NC(=O)C(c2c[nH]c3cc(Br)ccc23)=C1c1cnc[nH]1
[reply] > 100 µM

# credit: PubChem BioAssay (NCI)
